B1: tRNA (parent)
chain: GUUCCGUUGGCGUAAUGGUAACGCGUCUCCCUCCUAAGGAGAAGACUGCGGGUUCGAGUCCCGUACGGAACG

- Variants of: B1
- ASSAY INFO: yeast fitness relative to wild type (ratio to wild type); higher = fitter; tRNA-Arg(CCU), competitive growth, 37 C, YPD
Fewer inactive variants are shown than the library holds.
Here, each record is paired with measured yeast fitness data.
# output: bare number, no unit

C4A G6A A40G U53G C62G C66U :: 0.6
C33U C66U :: 0.651

# input Find the recorded yeast fitness belonging to C24G G41A and report it.
# output 0.619

# input Entry C11G C30A : reported yeast fitness = ?
# output 0.588

# input # lookup: yeast fitness of G56A U59C A65C
# output 0.738

# input I am curious: what yeast fitness value has been reported for C11G A20C G23A G52C C61U ?
# output 0.662

# input # yeast fitness lookup, item U7G C31U A69U
# output 0.628

# input Can you share its yeast fitness? I mean this variant: G9A C61U
# output 0.949

# input What does the record list as yeast fitness for G9A A45U A70U ?
# output 1.01

# input What value of yeast fitness has been recorded for this entry: U3A C5U C33G
# output 0.639
